Source listed as paper PMC7156458.

# SYSTEM_NAME: Aβ42 (Homo sapiens, UniProt P05067)
# Sequence (P05067 672-713): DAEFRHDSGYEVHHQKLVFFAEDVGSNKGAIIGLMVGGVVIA
# ASSAY_COMMENT: Th-T (thioflavin-T) assay of Aβ42 aggregation
# Assay type: biochemical
# PARTICULARS: column suffix _10; reading M106
Decision: Fig. 7a Th-T reading, mean of three wells >= 2 yields MET, all other cases yield NOT MET.

Query block: // inclusive: Fig. 7a Th-T reading, mean of three wells at least 2? input: C=C1CCC2C(C)(CCC=C(C)C)C(O)CCC2(C)C1Cc1c(OC)oc(C)c(C(=O)OC)c1=O (centres unmarked)
Result block: MET

Query block: For this molecule, is measured Fig. 7a Th-T reading, mean of three wells 2 or higher? `C=C1CC[C@@H]2[C@](C)(CC[C@H]3O[C@H](C=C(C)C)C[C@@]23C)[C@@H]1Cc1c(OC)oc(CO)c(C(=O)OC)c1=O`
Result block: NOT MET

Query block: Form field: Fig. 7a Th-T reading, mean of three wells at least 2? Entry: C=C1CCC2C(C)(CCC=C(C)C)C(O)CCC2(C)C1Cc1c(OC)oc(CO)c(C(=O)OC)c1=O (centres unmarked)
Result block: NOT MET

Query block: Item `C=C1CC[C@@H]2[C@](C)(CC[C@H]3O[C@H](C=C(C)C)C[C@@]23C)[C@@H]1Cc1c(OC)oc(CO)c(C)c1=O` with Fig. 7a Th-T reading, mean of three wells of 2 or above?
Result block: MET

Query block: Is the recorded value of Fig. 7a Th-T reading, mean of three wells equal to or greater than 2 for this molecule? C=C1CCC2C(C)(CCC=C(C)C)C(O)CCC2(C)C1Cc1c(OC)oc(CO)c(C)c1=O (centres unmarked)
Result block: MET

====

Please respond with reported Th-T fluorescence, mean of three wells (Fig. 7a) for every item in the list.
# SYSTEM_NAME: Aβ42 (Homo sapiens, UniProt P05067)
# ASSAY_COMMENT: Th-T (thioflavin-T) assay of Aβ42 aggregation
# Format: biochemical
# PARTICULARS: column suffix _20; measurement M26

Documented Th-T fluorescence, mean of three wells (Fig. 7a) of `C=C1CC[C@@H]2[C@](C)(CC[C@H]3O[C@H](C=C(C)C)C[C@@]23C)[C@@H]1Cc1c(OC)oc(CO)c(C)c1=O` : 3.367

Form field Th-T fluorescence, mean of three wells (Fig. 7a), entry C=C1CCC2C(C)(CCC=C(C)C)C(O)CCC2(C)C1Cc1c(OC)oc(C)c(C(=O)OC)c1=O (centres unmarked) : 1.556

Noted for `C=C1CC[C@@H]2[C@](C)(CC[C@H]3O[C@H](C=C(C)C)C[C@@]23C)[C@@H]1Cc1c(OC)oc(CO)c(C(=O)OC)c1=O` : its Th-T fluorescence, mean of three wells (Fig. 7a) reads 0.2021

In plain terms, C=C1CCC2C(C)(CCC=C(C)C)C(O)CCC2(C)C1Cc1c(OC)oc(CO)c(C(=O)OC)c1=O (centres unmarked) has a documented Th-T fluorescence, mean of three wells (Fig. 7a) of 0.1899

Summary for this molecule, C=C1CCC2C(C)(CCC=C(C)C)C(O)CCC2(C)C1Cc1c(OC)oc(CO)c(C)c1=O (centres unmarked) : Th-T fluorescence, mean of three wells (Fig. 7a) is 2.427

====

# SYSTEM_NAME: Aβ42 (Homo sapiens, UniProt P05067)
# ASSAY_COMMENT: Th-T (thioflavin-T) assay of Aβ42 aggregation
# Format: biochemical
# PARTICULARS: compound at 10; reading M51 of time course
Consider the following compounds; for each one, report its Th-T fluorescence, mean of three wells.
Reply with just the number.

The recorded Th-T fluorescence, mean of three wells for entry C=C1CCC2C(C)(CCC=C(C)C)C(O)CCC2(C)C1Cc1c(OC)oc(CO)c(C(=O)OC)c1=O (centres unmarked) equals 1.523

Recorded Th-T fluorescence, mean of three wells (compound `C=C1CC[C@@H]2[C@](C)(CC[C@H]3O[C@H](C=C(C)C)C[C@@]23C)[C@@H]1Cc1c(OC)oc(CO)c(C)c1=O` ): 3.451

According to the records, this compound `C=C1CC[C@@H]2[C@](C)(CC[C@H]3O[C@H](C=C(C)C)C[C@@]23C)[C@@H]1Cc1c(OC)oc(CO)c(C(=O)OC)c1=O` displays Th-T fluorescence, mean of three wells of 0.2759

// Th-T fluorescence, mean of three wells lookup, compound = C=C1CCC2C(C)(CCC=C(C)C)C(O)CCC2(C)C1Cc1c(OC)oc(C)c(C(=O)OC)c1=O (centres unmarked) , result: 2.541

# compound C=C1CCC2C(C)(CCC=C(C)C)C(O)CCC2(C)C1Cc1c(OC)oc(CO)c(C)c1=O (centres unmarked) ; its Th-T fluorescence, mean of three wells = 3.408

====

# SYSTEM_NAME: Aβ42 (Homo sapiens, UniProt P05067)
# ASSAY_COMMENT: Th-T (thioflavin-T) assay of Aβ42 aggregation
# Assay type: biochemical
# PARTICULARS: concentration 50, unit not given; time-course reading M144
The label depends only on Th-T fluorescence of Aβ42 with compound, mean of three wells (Fig. 7a source data): met if it is at least 0.7, not met if it is smaller.

Query block: Could you please find out whether C=C1CC[C@@H]2[C@](C)(CC[C@H]3O[C@H](C=C(C)C)C[C@@]23C)[C@@H]1Cc1c(OC)oc(CO)c(C(=O)OC)c1=O [Compound 21] has Th-T fluorescence of Aβ42 with compound, mean of three wells (Fig. 7a source data) that meets 0.7 or exceeds it?
Result block: not met

Query block: Evaluate C=C1CCC2C(C)(CCC=C(C)C)C(O)CCC2(C)C1Cc1c(OC)oc(CO)c(C)c1=O (centres unmarked) [Compound 12] : Th-T fluorescence of Aβ42 with compound, mean of three wells (Fig. 7a source data) at minimum 0.7?
Result block: met

Query block: Check if Th-T fluorescence of Aβ42 with compound, mean of three wells (Fig. 7a source data) >= 0.7 (inclusive). Item: C=C1CC[C@@H]2[C@](C)(CC[C@H]3O[C@H](C=C(C)C)C[C@@]23C)[C@@H]1Cc1c(OC)oc(CO)c(C)c1=O [Compound 20]
Result block: met

Query block: Textbook exercise: given the entry C=C1CCC2C(C)(CCC=C(C)C)C(O)CCC2(C)C1Cc1c(OC)oc(CO)c(C(=O)OC)c1=O (centres unmarked) [Compound 13] , state whether its Th-T fluorescence of Aβ42 with compound, mean of three wells (Fig. 7a source data) is greater than or equal to 0.7.
Result block: not met

====

# SYSTEM_NAME: Aβ42 (Homo sapiens, UniProt P05067)
# ASSAY_COMMENT: Th-T (thioflavin-T) assay of Aβ42 aggregation
# Assay type: biochemical
# PARTICULARS: compound at 50; reading M61 of time course
Response field label takes t when Th-T fluorescence, mean of three wells is strictly below 0.5 and f in all other cases.

Query block: Dear reviewer, please state whether C=C1CCC2C(C)(CCC=C(C)C)C(O)CCC2(C)C1Cc1c(OC)oc(C)c(C(=O)OC)c1=O (centres unmarked) has Th-T fluorescence, mean of three wells strictly beneath 0.5.
Result block: f

Query block: In plain terms, does C=C1CCC2C(C)(CCC=C(C)C)C(O)CCC2(C)C1Cc1c(OC)oc(CO)c(C)c1=O (centres unmarked) come in under 0.5 for Th-T fluorescence, mean of three wells?
Result block: f

Query block: Is 0.5 strictly greater than the molecule's reported Th-T fluorescence, mean of three wells? molecule: `C=C1CC[C@@H]2[C@](C)(CC[C@H]3O[C@H](C=C(C)C)C[C@@]23C)[C@@H]1Cc1c(OC)oc(CO)c(C)c1=O`
Result block: f

Query block: Please check: Th-T fluorescence, mean of three wells for C=C1CCC2C(C)(CCC=C(C)C)C(O)CCC2(C)C1Cc1c(OC)oc(CO)c(C(=O)OC)c1=O (centres unmarked) , strictly under 0.5 or not?
Result block: t

Query block: is_below(Th-T fluorescence, mean of three wells, 0.5) for `C=C1CC[C@@H]2[C@](C)(CC[C@H]3O[C@H](C=C(C)C)C[C@@]23C)[C@@H]1Cc1c(OC)oc(CO)c(C(=O)OC)c1=O` ?
Result block: t

====

# SYSTEM_NAME: Aβ42 (Homo sapiens, UniProt P05067)
# ASSAY_COMMENT: Th-T (thioflavin-T) assay of Aβ42 aggregation
# Type: biochemical
# PARTICULARS: measurement M5; source data, Ab alone and No Ab as controls
READOUT_TYPE: Th-T assay plate reading, mean of three wells (Supplementary Fig. 47)
Give a plain numeric answer without units written out.

// returns Th-T assay plate reading, mean of three wells (Supplementary Fig. 47) for CC(C)=CCC/C(C)=C/CC/C(C)=C/CC/C(C)=C/Cc1c(O)c(C)c(C)oc1=O [Compound 2] with Aβ42 (Homo sapiens, UniProt P05067); value = 0.5047

Item: C=C1CC[C@@H]2[C@](C)(CC[C@H]3O[C@H](C=C(C)C)C[C@@]23C)[C@@H]1Cc1c(O)c(C)c(C)oc1=O [Compound 10, higginsianin A] | System: Aβ42 (Homo sapiens, UniProt P05067) | Th-T assay plate reading, mean of three wells (Supplementary Fig. 47): 0.3791

# C=C1CCC2C(C)(CCC=C(C)C)C(O)CCC2(C)C1Cc1c(O)c(C)c(C)oc1=O (stereo not drawn) [Compound 9, higginsianin B] with Aβ42 (Homo sapiens, UniProt P05067): Th-T assay plate reading, mean of three wells (Supplementary Fig. 47) is 0.3211
